These data points were gathered from patent EP0501713B1.

Reported LD50 at 72 h values for a set of molecules
Protocol: Acute toxicity
Type: in vivo
Experimental setup: mouse, in vivo, ip, intraperitoneally administered; mice observed 72 hours later
Protocol: ddy Male mice (body weights: 25-30 g) were used. Each test compound was intraperitoneally administered, and 72 hours later, the mice were observed as to whether they were alive or dead. 50% lethal doses LD50 (mg/kg) were calculated.
State just the number; it will be interpreted in mg/kg.

Molecule	Value unit	Numeric readout
CCC(CN1CCCC1)C(=O)c1cc(-c2ccccc2)no1 (single isomer, unassigned; (+)) [(+) form]	mg/kg	386

We next turn to a different molecule, shown below.
## Input Specify reported LD50 at 72 h for the molecule shown: CCC(CN1CCCC1)C(=O)c1cc(-c2ccccc2)no1 (racemic) [racemic form, reference compound]
## Output 445
